# Test system: HepG2
# protocolSummary: cytotoxicity call (relative viability < 0.9)
# testContext: 10 µM
Hit rate of the full screen: of about 39,000 compounds, about 3,300 (8.5%) were called active. Many of the other results were omitted from the sample, so actives are more common in it than they were.
Could you please pick one outcome from this set? active, inactive

Check out these entries, answers already filled in.
{"columns": ["compound", "labelValue"],
 "data": [
  ["CC=C1CC(C)C(O)(CO)C(=O)OCC2=CCN3CCC(OC1=O)C23 (stereo not given)", "inactive"],
  ["C[N+]1(C)C2CCC1CC(OC(=O)C(CO)c1ccccc1)C2.O=[N+]([O-])[O-] (stereo not given)", "inactive"],
  ["CCC(c1cccc(O)c1)C(C)CN(C)C.Cl (stereo not given)", "inactive"],
  ["O=C1CO[C@H]2CNC[C@@H]2N1CC1CCCC1", "inactive"],
  ["Br.CN1C2CC(OC(=O)C(CO)c3ccccc3)CC1C1OC12 (stereo not given)", "inactive"],
  ["N[C@@H](CO)Cc1ccccc1", "inactive"],
  ["C[C@H](CO)N1C[C@H](C)[C@H](CN(C)C(=O)Oc2cccc3ccccc23)OCc2cn(nn2)CCCC1=O", "inactive"],
  ["C[C@H](CO)N1C[C@H](C)[C@H](CN(C)C(=O)Oc2ccc3ccccc3c2)OCc2cnnn2CCCC1=O", "inactive"]
]}

*Q* For Cc1ccc(OC(=O)N(C)C[C@H]2OCc3ccccc3-c3c(n(C)c4ccccc34)C(=O)N([C@@H](C)CO)C[C@H]2C)cc1 , which call appears in the assay record?
*A* inactive

*Q* Give the logged outcome of this assay for the following compound: Cl.NCCc1cc(O)c(O)cc1O
*A* inactive

*Q* What outcome does the record of this test show for COCCC(=O)N1C[C@H]2CCN[C@H]2C1 ?
*A* inactive

*Q* // outcome(item) with item = Cc1nc2c(=O)n(C)c(=O)nc-2n(C)n1
*A* active

*Q* What did the test return for c1cnc2[nH]cc(CN3CCNCC3)c2c1 ?
*A* inactive

*Q* // return assay outcome for Cn1ncnc2c(=O)n(C)c(=O)nc1-2
*A* active
